Consider the following compounds; for each one, report its Selection ratio (KDR phosphorylation IC50 / c-fms phosphorylation IC50).
Molecular target: Human KDR (Homo sapiens, UniProt P35968)
Construct: expressed in transfected cells; host or cells: NIH3T3 cells (mouse fibroblasts)
Sequence (P35968 20-1356): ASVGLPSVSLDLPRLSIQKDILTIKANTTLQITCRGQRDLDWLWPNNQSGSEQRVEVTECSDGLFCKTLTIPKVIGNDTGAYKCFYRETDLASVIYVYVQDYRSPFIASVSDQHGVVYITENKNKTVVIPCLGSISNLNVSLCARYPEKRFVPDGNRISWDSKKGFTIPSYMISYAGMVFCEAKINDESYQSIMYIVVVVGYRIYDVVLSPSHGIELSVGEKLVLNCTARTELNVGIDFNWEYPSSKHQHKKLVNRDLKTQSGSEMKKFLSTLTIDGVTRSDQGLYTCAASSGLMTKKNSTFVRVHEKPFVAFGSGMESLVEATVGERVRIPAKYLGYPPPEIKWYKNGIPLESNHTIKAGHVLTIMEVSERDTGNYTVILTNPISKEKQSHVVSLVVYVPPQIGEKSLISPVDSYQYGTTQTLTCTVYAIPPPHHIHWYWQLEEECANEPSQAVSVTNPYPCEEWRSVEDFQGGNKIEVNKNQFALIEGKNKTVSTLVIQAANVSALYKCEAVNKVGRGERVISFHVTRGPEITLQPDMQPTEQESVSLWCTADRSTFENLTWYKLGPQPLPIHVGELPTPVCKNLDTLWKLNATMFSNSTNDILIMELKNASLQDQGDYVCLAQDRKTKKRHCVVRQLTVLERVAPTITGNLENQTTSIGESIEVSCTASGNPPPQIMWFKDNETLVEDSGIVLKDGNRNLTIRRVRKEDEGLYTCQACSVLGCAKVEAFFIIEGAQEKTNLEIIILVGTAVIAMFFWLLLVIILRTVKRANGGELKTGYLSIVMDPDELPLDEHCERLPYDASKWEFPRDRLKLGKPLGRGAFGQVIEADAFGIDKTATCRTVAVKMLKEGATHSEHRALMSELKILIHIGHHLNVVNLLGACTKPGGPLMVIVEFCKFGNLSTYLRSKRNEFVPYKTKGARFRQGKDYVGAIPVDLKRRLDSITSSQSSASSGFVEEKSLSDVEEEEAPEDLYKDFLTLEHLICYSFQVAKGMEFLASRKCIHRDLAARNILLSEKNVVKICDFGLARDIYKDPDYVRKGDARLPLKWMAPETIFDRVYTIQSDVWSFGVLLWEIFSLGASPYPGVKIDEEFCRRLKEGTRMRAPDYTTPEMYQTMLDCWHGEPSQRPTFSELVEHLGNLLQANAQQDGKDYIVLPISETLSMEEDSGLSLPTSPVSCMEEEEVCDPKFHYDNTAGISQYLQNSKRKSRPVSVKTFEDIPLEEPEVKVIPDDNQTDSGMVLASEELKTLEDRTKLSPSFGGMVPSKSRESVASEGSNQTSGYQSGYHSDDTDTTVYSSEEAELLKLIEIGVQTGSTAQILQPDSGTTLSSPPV
Assay: Inhibition of KDR phosphorylation in human KDR-transfected NIH3T3 cells (ELISA);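 note: class 2 means ratio of 10 or more and class 3 means 50 or more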
Type: cell-based
Conditions: class 0-3

Q: Please report the recorded Selection ratio (KDR phosphorylation IC50 / c-fms phosphorylation IC50) for COc1cc2nccc(Oc3ccc(NC(=O)N[C@@H](C)c4ccc(F)cc4)c(Cl)c3)c2cc1OC [Example 5] .
Ans: 1 (when the value was 5 or more)

Q: Next up: COc1cc2nccc(Oc3ccc(NC(=O)N[C@@H](C)c4ccc(Br)cc4)cc3)c2cc1OC [Example 34]
Ans: 2 (when the value was 10 or more)

Q: Next up: COc1cc2nccc(Oc3ccc(NC(=O)N[C@@H](C)c4ccc(F)cc4)cc3Cl)c2cc1OC [Example 11]
Ans: 2 (when the value was 10 or more)
